target.or.test.system: human 5-HT1A (Homo sapiens, UniProt P08908)
Sequence (P08908 1-422): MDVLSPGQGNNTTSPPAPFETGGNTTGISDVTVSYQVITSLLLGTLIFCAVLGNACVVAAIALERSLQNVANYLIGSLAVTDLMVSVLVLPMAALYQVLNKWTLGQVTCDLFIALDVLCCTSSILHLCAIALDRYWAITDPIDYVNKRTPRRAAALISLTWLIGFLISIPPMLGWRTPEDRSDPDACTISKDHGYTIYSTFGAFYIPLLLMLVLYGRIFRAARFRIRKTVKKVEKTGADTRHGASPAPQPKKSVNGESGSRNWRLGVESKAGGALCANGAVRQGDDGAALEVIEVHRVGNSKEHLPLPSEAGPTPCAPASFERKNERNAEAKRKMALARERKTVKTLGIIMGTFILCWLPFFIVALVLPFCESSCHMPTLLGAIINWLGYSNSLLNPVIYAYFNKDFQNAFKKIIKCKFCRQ
assay.text: 5-HT1A-mediated cAMP reduction assay (GloSensor, HEK293-T)
measurement.conditions: cAMP, 5-HT1A WT
readout.name: pEC50
Numbers only, as −log10 of the molar value.

Asked: Give the value of pEC50 reported for the following: COc1ccc2[nH]cc(CCN3CCCC3)c2c1F
Given back: 10.52
